System: DMPK
Experiment notes: DMPK knockdown by transfected antisense oligonucleotides in DM1 C15 myotubes at 0.5 nM and 50 nM
Format: cell-based
Run parameters: 0.5 nM oligonucleotide, 72 hours, qPCR, relative to vehicle control
Would you please tag the item Satisfied when its Percent DMPK Reduction is 20% or above, and Not satisfied when it is below?

Solved entries (count: 3):
- 267 (CUUGUUCAUGAUCUUCAUGG; chemistry not given here) [compound 267]: Not satisfied
- 318 (AGGAGCAGGGAAAGCGCCUC; chemistry not given here) [compound 318]: Satisfied
- 358 (GUGUCCGGAAGUCGCCUGCU; chemistry not given here) [compound 358]: Satisfied

Ask: Does the reported Percent DMPK Reduction for 285 (AUCUCGGCCGGAAUCCGCUC; chemistry not given here) [compound 285] fall at or above the 20% mark?
Result: Not satisfied

Ask: Does the reported Percent DMPK Reduction for 327 (CCCAAACUUGCUCAGCAGUG; chemistry not given here) [compound 327] fall at or above the 20% mark?
Result: Satisfied

Ask: Does the reported Percent DMPK Reduction for 376 (GGCUCCUGGGCGGCGCCAGA; chemistry not given here) [compound 376] fall at or above the 20% mark?
Result: Not satisfied

Ask: Does the reported Percent DMPK Reduction for 333 (AUGGCAUACACCUGGCCCGU; chemistry not given here) [compound 333] fall at or above the 20% mark?
Result: Not satisfied

Ask: Does the reported Percent DMPK Reduction for 339 (CUCCGCCAGGUAGAAGCGCG; chemistry not given here) [compound 339] fall at or above the 20% mark?
Result: Satisfied

* * *

Documented Percent DMPK Reduction across a set of substances
System: DMPK
Experiment notes: DMPK knockdown by transfected antisense oligonucleotides in DM1 C15 myotubes at 0.5 nM and 50 nM
Format: cell-based
Run parameters: 50 nM oligonucleotide, 72 hours, qPCR, relative to vehicle control
Response body: numeric value in %, unit text excluded.

// below: answered substances
- 365 (UCUCAGUGCAUCCAAAACGU; chemistry not given here) [compound 365]: 51.34
- 277 (GACCAGGUACAGGUAGUUCU; chemistry not given here) [compound 277]: 70.95
- 269 (CUGUCCCGGAGACCAUCCCA; chemistry not given here) [compound 269]: 50.78

Ask: Which value of Percent DMPK Reduction has been reported for 353 (GGCGAAUACACCCAGCGCCC; chemistry not given here) [compound 353] in the records?
Result: 68.72

* * *

System: DMPK
Experiment notes: Dose-responsive DMPK reduction in DM1 C15 myotubes (EC-50)
Format: cell-based
Run parameters: DM1 C15 differentiated myotubes, transfection with Lipofectamine MessengerMax, 72 hours, 0.046-100 nM
Measured endpoint: pEC50
Notebook: values listed as pEC50 are -log10 of the concentration (mol/L).

// below: answered substances
- 286 (GCUUCAUCUUCACUACCGCU; chemistry not given here) [compound 286]: 10.52
- 294 (CGUUCCAUCUGCCCGCAGCU; chemistry not given here) [compound 294]: 9.72
- 299 (GCAGGAUGUUGUCGGGUUUG; chemistry not given here) [compound 299]: 9.77
- 257 (CAUGGCAUACACCUGGCCCG; chemistry not given here) [compound 257]: 9.38
- 346 (GACAGAACAACGGCGAACAG; chemistry not given here) [compound 346]: 10.10

Ask: What pEC50 appears in the records for this substance with DMPK? 260 (CGAAUGUCCGACAGUGUCUC; chemistry not given here) [compound 260]
Result: 9.74

Ask: What pEC50 appears in the records for this substance with DMPK? 362 (GCUGUCCCGGAGACCAUCCC; chemistry not given here) [compound 362]
Result: 8.49

Ask: What pEC50 appears in the records for this substance with DMPK? 310 (GCGUAGAAGGGCGUCUGCCC; chemistry not given here) [compound 310]
Result: 7.61

Ask: What pEC50 appears in the records for this substance with DMPK? 278 (CCAUCUCGGCCGGAAUCCGC; chemistry not given here) [compound 278]
Result: 9.36

Ask: What pEC50 appears in the records for this substance with DMPK? 320 (CCCAGCGCCCACCAGUCACA; chemistry not given here) [compound 320]
Result: 8.26

Ask: What pEC50 appears in the records for this substance with DMPK? 301 (UGUUGUCGGGUUUGAUGUCC; chemistry not given here) [compound 301]
Result: 9.68

* * *

Test system: DMPK
Experiment notes: DMPK knockdown by transfected antisense oligonucleotides in DM1 C15 myotubes at 0.5 nM and 50 nM
Type: cell-based
Run parameters: 0.5 nM oligonucleotide, 72 hours, qPCR, relative to vehicle control = 1.00
Field: label. Allowed values: 1 (Normalized DMPK Remaining < 0.7) or 0 (Normalized DMPK Remaining >= 0.7).

- 270 (GGGCCUGGGACCUCACUGUC; chemistry not given here) [compound 270]: 1
- 326 (CAGCGCCCACCAGUCACACU; chemistry not given here) [compound 326]: 1
- 311 (CUCAGCCUCUGCCGCAGGGA; chemistry not given here) [compound 311]: 0
- 260 (CGAAUGUCCGACAGUGUCUC; chemistry not given here) [compound 260]: 1
- 275 (AGCGCCUCCGAUAGGCCAGG; chemistry not given here) [compound 275]: 0
- 253 (UGCUCAGCAGUGUCAGCAGG; chemistry not given here) [compound 253]: 0

We now examine a further substance.
Ask: Please check: Normalized DMPK Remaining for 343 (CGUAGUUGACUGGCGAAGUU; chemistry not given here) [compound 343] , strictly under 0.7 or not?
Result: 0

* * *

Documented Percent DMPK Reduction across a set of substances
Test system: DMPK
Experiment notes: DMPK knockdown by transfected antisense oligonucleotides in DM1 C15 myotubes at 0.5 nM and 50 nM
Type: cell-based
Run parameters: 0.5 nM oligonucleotide, 72 hours

// below: answered substances
* 417 (CCAGCAGGAUGUUGUCGGGU; chemistry not given here) [compound 417] | 40.29%
* 397 (GGACAGACAAUAAAUACCGA; chemistry not given here) [compound 397] | 22.57%
* 408 (UCGGGUUUGAUGUCCCUGUG; chemistry not given here) [compound 408] | 22.49%

--- query ---
Ask: What Percent DMPK Reduction appears in the records for this substance with DMPK? 410 (UACAGGUAGUUCUCAUCCUG; chemistry not given here) [compound 410]
Result: 19.83%

* * *

Documented Normalized DMPK Remaining across a set of substances
Test system: DMPK
Experiment notes: DMPK knockdown by transfected antisense oligonucleotides in DM1 C15 myotubes at 0.5 nM and 50 nM
Assay type: cell-based
Run parameters: 0.5 nM oligonucleotide, 72 hours, relative to vehicle control = 1.00
The answer should be written as a number, with no unit following it.

// below: answered substances
* 378 (GGAUGUUGUCGGGUUUGAUG; chemistry not given here) [compound 378] | 0.96
* 419 (UGCGGAUGGCCUCCAUCUCC; chemistry not given here) [compound 419] | 0.60
* 480 (AGGGAAAGCGCCUCCGAUAG; chemistry not given here) [compound 480] | 1.01
* 463 (AGGUAGUUCUCAUCCUGGAA; chemistry not given here) [compound 463] | 0.93

Ask: Which value of Normalized DMPK Remaining has been reported for 404 (CUCUGCCUCGCGUAGUUGAC; chemistry not given here) [compound 404] in the records?
Result: 0.83

* * *

Test system: DMPK
Experiment notes: DMPK knockdown by transfected antisense oligonucleotides in DM1 C15 myotubes at 0.5 nM and 50 nM
Assay type: cell-based
Run parameters: 0.5 nM oligonucleotide, 72 hours, qPCR, relative to vehicle control
Documented Percent DMPK Reduction across a set of substances
Remember to put the unit after the number in your answer.

// below: answered substances
- 364 (AGCGCCCACCAGUCACACUC; chemistry not given here) [compound 364]: 30.36%
- 350 (ACUUGCUCAGCAGUGUCAGC; chemistry not given here) [compound 350]: 27.84%
- 360 (GACAAUAAAUACCGAGGAAU; chemistry not given here) [compound 360]: 28.97%
- 347 (GCUCAGCAGUGUCAGCAGGU; chemistry not given here) [compound 347]: 29.18%
- 268 (UCAGUGCAUCCAAAACGUGG; chemistry not given here) [compound 268]: 15.76%
- 284 (CACGUAAUACUCCAUGACCA; chemistry not given here) [compound 284]: 24.40%

Ask: What Percent DMPK Reduction appears in the records for this substance with DMPK? 366 (UUUGGGCAGAUGGAGGGCCU; chemistry not given here) [compound 366]
Result: 35.14%

* * *

Documented Normalized DMPK Remaining across a set of substances
System: DMPK
Experiment notes: DMPK knockdown by transfected antisense oligonucleotides in DM1 C15 myotubes at 0.5 nM and 50 nM
Format: cell-based
Run parameters: 0.5 nM oligonucleotide, 72 hours, relative to vehicle control = 1.00
The answer should be written as a number, with no unit following it.

// below: answered substances
• 400 (UGACCAGGUACAGGUAGUUC; chemistry not given here) [compound 400] = 0.78
• 406 (ACAGGUAGUUCUCAUCCUGG; chemistry not given here) [compound 406] = 0.79

--- query ---
Ask: Which value of Normalized DMPK Remaining has been reported for 481 (GGGAAAGCGCCUCCGAUAGG; chemistry not given here) [compound 481] in the records?
Result: 0.90
